experiment: Oral bioavailability in human; conditions: in vivo, F
recordedEndpoint: bioavailability
Remember to follow the number with its unit.

Answered cases to consult:
INSERT INTO measurements (compound, observedresult) VALUES
  ('CCC(C)n1ncn(-c2ccc(N3CCN(c4ccc(OC[C@H]5CO[C@](Cn6cncn6)(c6ccc(Cl)cc6Cl)O5)cc4)CC3)cc2)c1=O (some centres undefined) [ITRACONAZOLE]', '55%'),
  ('Nc1nc(=O)n([C@@H]2CS[C@H](CO)O2)cc1F [EMTRICITABINE]', '93%'),
  ('CN(C)CCc1c[nH]c2ccc(CS(=O)(=O)N3CCCC3)cc12 [ALMOTRIPTAN]', '70%');

Field request: bioavailability | item: Cc1[nH]cnc1CN1CCc2c(c3ccccc3n2C)C1=O [ALOSETRON] 55%

The reported measurements were obtained from ChEMBL document CHEMBL1141299.
